Test system: Enterococcus faecalis
experiment summary: Antibacterial activity against vancomycin-resistant Enterococcus faecalis ATCC 51299 by broth microdilution method
Format: functional
recorded metric: log10 of MIC (log10 of the value in µM)

In [3]: df
Out[3]:
                                 test_smiles  experimental_value
 0  CC(C)=CCC/C(C)=C/Cc1c(O)cc(O)c2c1O[C@H](c1ccccc1)[C@H](O)C2=O                2.00
 1  CC(C)=CCC/C(C)=C/Cc1c(O)ccc(C(=O)/C=C/c2ccc(O)cc2)c1O                0.80
 2  COc1ccc(-c2coc3c(C/C=C(\C)CCC=C(C)C)c(O)cc(O)c3c2=O)cc1O                2.00
 3  COc1c(N2C[C@@H]3CCCN[C@@H]3C2)c(F)cc2c(=O)c(C(=O)O)cn(C3CC3)c12               -0.05
 4  CC(C)=CCC/C(C)=C/Cc1c(O)cc(/C=C\c2ccccc2)c(C(=O)O)c1O                2.00
 5  CC(C)=CCC/C(C)=C/Cc1c(O)cc(CCc2ccccc2)cc1O                1.10
 6  COc1ccc(-c2coc3cc(O)c(C/C=C(\C)CCC=C(C)C)c(O)c3c2=O)cc1O                1.70
 7  CC(C)=CCC/C(C)=C/Cc1c(O)cc(/C=C/c2ccccc2)c(C(=O)O)c1O                1.40
 8  COc1cc(CCc2ccccc2)c(C(=O)O)c(O)c1CC=C(C)C                1.40
 9  CC(C)=CCC/C(C)=C\Cc1c(O)cc(CCc2ccccc2)c(C(=O)O)c1O                2.00
10  CC(C)=CCC/C(C)=C/Cc1c(O)cc(/C=C\c2ccccc2)cc1O                2.00
11  CC(C)=CCC/C(C)=C/Cc1c(O)cc(/C=C/c2ccccc2)cc1O                0.80
12  COc1cc(CCc2ccccc2)c(C(=O)O)c(O)c1C/C=C(/C)CCC=C(C)C                0.80
